# Test system: HeLa S-3 cells
# experiment.summary: Inhibition of cell growth of HeLa cells (SRB)
# Format: cell-based, human
# applied.conditions: Homo sapiens, HeLa S3, 48 h, 2 days of treatment, replicate experiments
endpoint.label: GI50 (µM)

# count of solved cases: 3
{"compound": "CC(C)n1cnc2c(NCc3ccc(-c4cccc(F)c4)nc3)nc(N[C@H]3CC[C@H](NC(=O)[C@H](C)N)CC3)nc21", "u": "µM", "recorded.value": 0.04}
{"compound": "CCCN[C@H]1CC[C@H](Nc2nc(NCc3ccc(-c4cc(C)cs4)cc3)c3ncn(C(C)C)c3n2)CC1", "u": "µM", "recorded.value": 0.2}
{"compound": "CC(Nc1nc(N[C@H]2CC[C@H](N)CC2)nc2c1ncn2C(C)C)c1ccc(-c2ccsc2)cc1 (stereo partly shown)", "u": "µM", "recorded.value": 3}

(A) CC(C)n1cnc2c(NCc3ccc(-c4ccoc4)cc3)nc(N[C@H]3CC[C@H](N)CC3)nc21
(B) CCCNCCNc1nc(NCc2ccc(-c3ccccc3)cc2)c2ncn(C(C)C)c2n1
(C) COc1cccc(-c2ccc(CNc3nc(N[C@H]4CC[C@H](NC(C)=O)CC4)nc4c3ncn4C(C)C)cn2)c1
(D) CC(=O)N[C@@H](C)CNc1nc(NCc2ccc(-c3ccccc3)cc2)c2ncn(C(C)C)c2n1
Input line: Let's sort these by GI50, smallest first. Go ahead? Arrange the labels as the request states and list them.
Output line: C, A, B, D
